# SYSTEM: Erg10 (acetoacetyl-CoA thiolase) (Saccharomyces cerevisiae, UniProt P41338)
# Construct: Erg10 activity was assayed in extracts of WT yeast in the presence or absence of SNO-CoA; endogenous in cells
# Sequence (P41338 whole entry): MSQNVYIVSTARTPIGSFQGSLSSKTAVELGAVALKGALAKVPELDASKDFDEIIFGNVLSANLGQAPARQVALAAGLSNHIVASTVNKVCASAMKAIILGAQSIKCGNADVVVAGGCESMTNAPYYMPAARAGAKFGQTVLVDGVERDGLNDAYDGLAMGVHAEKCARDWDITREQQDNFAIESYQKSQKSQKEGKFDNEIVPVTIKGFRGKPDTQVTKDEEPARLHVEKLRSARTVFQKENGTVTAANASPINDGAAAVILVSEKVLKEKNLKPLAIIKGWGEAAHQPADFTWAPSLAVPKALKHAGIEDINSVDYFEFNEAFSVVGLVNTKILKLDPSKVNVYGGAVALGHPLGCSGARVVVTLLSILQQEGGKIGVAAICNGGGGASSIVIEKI
# PROTOCOL TEXT: Assay for acetoacetyl-CoA thiolase (Erg10) activity
# MEASUREMENT SETUP: purified protein; read-out: IC50 for inhibition of Erg10 thiolase activity
TEST READOUT: pIC50
Give bare numbers, as −log10 of the molar value.

The molecule identified as CC(C)(COP(=O)(O)OP(=O)(O)OC[C@H]1O[C@@H](n2cnc3c(N)ncnc32)[C@H](O)[C@@H]1OP(=O)(O)O)[C@@H](O)C(=O)NCCC(=O)NCCSN=O registered its pIC50 at 5.40
